# Tested on: P-glycoprotein (MDR1)
# PROTOCOL DETAILS: BBB penetration
# Assay type: in vitro ADME, canine
# PROTOCOL CONDITIONS: dog, MDCK-MDR1
PROPERTY LABEL: efflux ratio at 60 min
Answers are plain numbers.

The cases that follow already have their efflux ratio at 60 min on record.
For the compound CCc1ccc2oc(-c3ccc(O)c(O)c3)c(O)c(=O)c2c1 [CSMC-9, 6-ethyl-3,3',4'-trihydroxy flavone] , report efflux ratio at 60 min.
0.19

For the compound O=c1c(O)c(-c2ccc(O)c(O)c2)oc2cc(O)ccc12 [Fisetin, 3,3',4',7-tetrahydroxyflavone, reference compound] , report efflux ratio at 60 min.
0.7

For the compound O=c1cc(-c2cc(O)c(O)c(O)c2)oc2ccccc12 [CSMC-19, 3',4',5'-trihydroxyflavone] , report efflux ratio at 60 min.
0.01

Please give efflux ratio at 60 min, item by item, for the list that follows.
1. COc1cc(-c2oc3cc(C)c(C)cc3c(=O)c2O)ccc1O
2. Cc1ccc2oc(-c3ccc(O)c(O)c3)c(O)c(=O)c2c1 [CSMC-11, 6-methyl-3,3',4'-trihydroxy flavone]
3. CCCc1ccc2oc(-c3ccc(O)c(O)c3)c(O)c(=O)c2c1 [CSMC-13, 6-propyl-3,3',4'-trihydroxy flavone]

0.4
0.12
1

====

# System: H4IIE cells
# PROTOCOL DETAILS: CeeTox cell mass
# PROTOCOL CONDITIONS: 24 hr
PROPERTY LABEL: Cell Mass TC50

Under H4IIE cells: report Cell Mass TC50 of CC[C@@]1(O)C(=O)OCc2c1cc1n(c2=O)Cc2cc3ccccc3nc2-1 [CAMPTOTHECIN, camptothecin, reference compound] .
3.0 µM

Under H4IIE cells: report Cell Mass TC50 of "CC(C)Oc1cc(-c2ccc(O)c(O)c2)nc2ccccc12" .
241 µM

Under H4IIE cells: report Cell Mass TC50 of "COc1cc(-c2ccc(O)c(O)c2)nc2ccccc12" .
208 µM

Under H4IIE cells: report Cell Mass TC50 of "CCOc1cc(-c2ccc(O)c(O)c2)nc2ccccc12" .
215 µM

Under H4IIE cells: report Cell Mass TC50 of O=c1c(O)c(-c2ccc(O)c(O)c2)oc2c1ccc1ccccc12 [CSMC-6, 3,3',4'-trihydroxy alpha-naphthoflavone] .
80 µM

Under H4IIE cells: report Cell Mass TC50 of Cc1ccc2oc(-c3ccc(O)c(O)c3)c(O)c(=O)c2c1 [CSMC-11, 6-methyl-3,3',4'-trihydroxy flavone] .
>300 µM

Please give Cell Mass TC50, item by item, for the list that follows.
1. Cc1cc(O)c(C(=O)/C=C/c2ccc(O)c(O)c2)cc1C [CSMC-10, 4',5'-dimethyl-2',3,4-trihydroxychalcone]
2. COc1cc(-c2oc3cc(C)c(C)cc3c(=O)c2O)ccc1O
3. CCCc1ccc2oc(-c3ccc(O)c(O)c3)c(O)c(=O)c2c1 [CSMC-13, 6-propyl-3,3',4'-trihydroxy flavone]
4. CCc1ccc2oc(-c3ccc(O)c(O)c3)c(O)c(=O)c2c1 [CSMC-9, 6-ethyl-3,3',4'-trihydroxy flavone]
5. O=c1cc(-c2cc(O)c(O)c(O)c2)oc2ccccc12 [CSMC-19, 3',4',5'-trihydroxyflavone]
6. C=C(C)[C@H]1Cc2c(ccc3c2O[C@@H]2COc4cc(OC)c(OC)cc4[C@@H]2C3=O)O1 [ROTENONE, rotenone, reference compound]

1: 86 µM; 2: 79 µM; 3: 78 µM; 4: 82 µM; 5: >300 µM; 6: 0.09 µM

====

# Test system: H4IIE cells
# PROTOCOL DETAILS: CeeTox cellular ATP content
# PROTOCOL CONDITIONS: 24 hr
Returns one of class 1 or class 0; class 1 when ATP TC50 is >= 80 µM.

Solved entries:
Record CCCc1ccc2oc(-c3ccc(O)c(O)c3)c(O)c(=O)c2c1 [CSMC-13, 6-propyl-3,3',4'-trihydroxy flavone] ; criterion: ATP TC50 no lower than 80 µM. Met?
class 0

Record Cc1cc(O)c(C(=O)/C=C/c2ccc(O)c(O)c2)cc1C [CSMC-10, 4',5'-dimethyl-2',3,4-trihydroxychalcone] ; criterion: ATP TC50 no lower than 80 µM. Met?
class 0

Record "CCOc1cc(-c2ccc(O)c(O)c2)nc2ccccc12" ; criterion: ATP TC50 no lower than 80 µM. Met?
class 1

More entries:
Record C=C(C)[C@H]1Cc2c(ccc3c2O[C@@H]2COc4cc(OC)c(OC)cc4[C@@H]2C3=O)O1 [ROTENONE, rotenone, reference compound] ; criterion: ATP TC50 no lower than 80 µM. Met?
class 0

====

# SYSTEM NAME: UniProt:P08684
# PROTOCOL DETAILS: Cloe Screen Cytochrome P450 Inhibition assay
# Type: in vitro ADME
# PROTOCOL CONDITIONS: read-out: CYP3A4 IC50; human liver microsomes; substrate head: Mephenytoin
PROPERTY LABEL: IC50

For the molecule O=c1c(O)c(-c2ccc(O)c(O)c2)oc2c1ccc1ccccc12 [CSMC-6, 3,3',4'-trihydroxy alpha-naphthoflavone] , report IC50.
> 10 µM

====

# System: Intracellular glutathione (GSH)
# PROTOCOL DETAILS: CeeTox intracellular glutathione
# PROTOCOL CONDITIONS: H4IIE cells
PROPERTY LABEL: Total GSH TC50 (µM)
Answers are plain numbers, in µM.

The cases that follow already have their Total GSH TC50 on record.
For the compound C=C(C)[C@H]1Cc2c(ccc3c2O[C@@H]2COc4cc(OC)c(OC)cc4[C@@H]2C3=O)O1 [ROTENONE, rotenone, reference compound] , report Total GSH TC50.
0.03

For the compound "CC(C)Oc1cc(-c2ccc(O)c(O)c2)nc2ccccc12" , report Total GSH TC50.
295

For the compound "COc1cc(-c2oc3cc(C)c(C)cc3c(=O)c2O)ccc1O" , report Total GSH TC50.
76

For the compound CCCc1ccc2oc(-c3ccc(O)c(O)c3)c(O)c(=O)c2c1 [CSMC-13, 6-propyl-3,3',4'-trihydroxy flavone] , report Total GSH TC50.
252

For the compound Cc1cc(O)c(C(=O)/C=C/c2ccc(O)c(O)c2)cc1C [CSMC-10, 4',5'-dimethyl-2',3,4-trihydroxychalcone] , report Total GSH TC50.
144

API: the following record is the query input.
For the compound CC[C@@]1(O)C(=O)OCc2c1cc1n(c2=O)Cc2cc3ccccc3nc2-1 [CAMPTOTHECIN, camptothecin, reference compound] , report Total GSH TC50.
5.0

====

# Tested on: 8-Isoprostane (8-ISO)
# PROTOCOL DETAILS: CeeTox lipid peroxidation measured as 8-isoprostane
# PROTOCOL CONDITIONS: H4IIE cells, 8-ISO score
PROPERTY LABEL: Membrane Lipid Peroxidation

For the compound CCc1ccc2oc(-c3ccc(O)c(O)c3)c(O)c(=O)c2c1 [CSMC-9, 6-ethyl-3,3',4'-trihydroxy flavone] , report Membrane Lipid Peroxidation.
0

====

I'd appreciate it if you could supply ATP TC50 values for the items below.
# Test system: H4IIE cells
# PROTOCOL DETAILS: CeeTox cellular ATP content
# PROTOCOL CONDITIONS: 24 hr
Numbers only, in µM.

The cases that follow already have their ATP TC50 on record.
For the compound "COc1cc(-c2ccc(O)c(O)c2)nc2ccccc12" , report ATP TC50.
223

For the compound "CC(C)Oc1cc(-c2ccc(O)c(O)c2)nc2ccccc12" , report ATP TC50.
217

For the compound Cc1ccc2oc(-c3ccc(O)c(O)c3)c(O)c(=O)c2c1 [CSMC-11, 6-methyl-3,3',4'-trihydroxy flavone] , report ATP TC50.
52

For the compound O=c1cc(-c2cc(O)c(O)c(O)c2)oc2ccccc12 [CSMC-19, 3',4',5'-trihydroxyflavone] , report ATP TC50.
256

More entries:
For the compound CC[C@@]1(O)C(=O)OCc2c1cc1n(c2=O)Cc2cc3ccccc3nc2-1 [CAMPTOTHECIN, camptothecin, reference compound] , report ATP TC50.
5.0

====

# SYSTEM NAME: CYP3A4 (Homo sapiens, UniProt P08684)
# Sequence (P08684 2-503): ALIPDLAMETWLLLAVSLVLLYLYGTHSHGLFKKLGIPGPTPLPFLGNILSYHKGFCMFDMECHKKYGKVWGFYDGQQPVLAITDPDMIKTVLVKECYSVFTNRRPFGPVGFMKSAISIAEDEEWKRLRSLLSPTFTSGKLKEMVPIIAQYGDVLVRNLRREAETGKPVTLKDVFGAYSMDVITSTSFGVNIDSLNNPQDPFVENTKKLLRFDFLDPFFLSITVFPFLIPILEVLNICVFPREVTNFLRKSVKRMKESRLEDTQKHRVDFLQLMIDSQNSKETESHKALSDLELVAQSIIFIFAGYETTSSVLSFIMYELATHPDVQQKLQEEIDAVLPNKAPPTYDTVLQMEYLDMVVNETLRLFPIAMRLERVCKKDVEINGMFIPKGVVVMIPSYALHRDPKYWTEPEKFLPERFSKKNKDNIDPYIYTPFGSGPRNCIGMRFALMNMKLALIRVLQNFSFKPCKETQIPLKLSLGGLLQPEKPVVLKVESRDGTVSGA
# PROTOCOL DETAILS: Cloe Screen Cytochrome P450 Inhibition assay
# Assay type: in vitro ADME
I'd appreciate it if you could supply IC50 values for the items below.

The cases that follow already have their IC50 on record.
For the molecule CCCc1ccc2oc(-c3ccc(O)c(O)c3)c(O)c(=O)c2c1 [CSMC-13, 6-propyl-3,3',4'-trihydroxy flavone] , report IC50.
> 10 µM

For the molecule O=c1cc(-c2cc(O)c(O)c(O)c2)oc2ccccc12 [CSMC-19, 3',4',5'-trihydroxyflavone] , report IC50.
> 10 µM

Please give IC50, item by item, for the list that follows.
1. CCOc1cc(-c2ccc(O)c(O)c2)nc2ccccc12
2. COc1cc(-c2oc3cc(C)c(C)cc3c(=O)c2O)ccc1O
3. Cc1cc(O)c(C(=O)/C=C/c2ccc(O)c(O)c2)cc1C [CSMC-10, 4',5'-dimethyl-2',3,4-trihydroxychalcone]

> 10 µM
> 10 µM
> 10 µM
